This section presents binders with their documented competition ratio (Antibody B to Antibody A) values.
- assay target: T1, recombinant human DLL3 (human, UniProt Q9NYJ7 27-492)
- T1 sequence: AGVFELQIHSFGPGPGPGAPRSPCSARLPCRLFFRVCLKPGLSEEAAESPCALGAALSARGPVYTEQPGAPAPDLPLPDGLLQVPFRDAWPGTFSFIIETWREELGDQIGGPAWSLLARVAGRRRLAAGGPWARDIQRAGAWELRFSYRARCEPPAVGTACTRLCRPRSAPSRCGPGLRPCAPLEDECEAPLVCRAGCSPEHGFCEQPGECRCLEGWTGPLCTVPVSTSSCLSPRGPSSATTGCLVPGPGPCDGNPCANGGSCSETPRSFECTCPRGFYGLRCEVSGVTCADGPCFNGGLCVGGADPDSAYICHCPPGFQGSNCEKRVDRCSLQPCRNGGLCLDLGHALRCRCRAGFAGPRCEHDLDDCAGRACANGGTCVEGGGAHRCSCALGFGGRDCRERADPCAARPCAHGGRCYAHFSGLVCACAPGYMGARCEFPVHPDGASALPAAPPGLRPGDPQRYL
- run description: Octet binning on SA sensor; Antibody A (biotinylated, loaded first): DL309-SG1; then 20 nM human DLL3, then 80 nM Antibody B
parameter: competition ratio (Antibody B to Antibody A)

- binder: "DLL3-14-SG1 (antibody, human IgG1, kappa, V domains shown, Variable regions of a previously reported anti-DLL3 antibody on SG1/SK1; Used as a second antibody only) VH: QVQLVQSGAEVKKPGASVKVSCKASGYTFTNYYMHWVRQAPGLGLEWMGIINPSDGSTSYAQKFQGRVTMTRDTSTNTVYMDLSSLRSEDTAVYYCARGGNSAFYSYYDMDVWGQGTTVTVSS VL: DVVMTQTPLSLPVTLGQPASISCRSSQSLVYRDGNTYLSWFQQRPGQSPRRLIYKVSNWQSGVPDRFSGGGSGTDFTLKISRVEAEDVGVYYCMQGTHWPPTFGQGTKVEIKR"
  observed value: 1
- binder: "DLL3-6-SG1 (antibody, human IgG1, kappa, V domains shown, Variable regions of a previously reported anti-DLL3 antibody on SG1/SK1; Used as a second antibody only) VH: QVQLQESGPGLVKPSETLSLTCTVSGASISSFYWSWIRQPPGKGLEWIGYIYYSGTTNYNPSLKSRVTISVDTSKNQFSLKLSSVTAADTAVYYCARIAVAGFFFDYWGQGTLVTVSS VL: EIVLTQSPGTLSLSPGERATLSCRASQSVNKNYLAWYQQKPGQAPRLLIYGASSRATGIPDRFSGSGSGTDFTLTISRLEPEDFAVYYCQQYDRSPLTFGGGTKVEIKR"
  observed value: 1
- binder: "DL301-SG1 (antibody, human IgG1, kappa, V domains shown, Variable regions of a previously reported anti-DLL3 antibody on SG1/SK1; Also used biotin-labelled as a first antibody) VH: QVQLQQSGADLVRPGTSVKVSCKASGYAFTNYLIEWIKQRPGQGLEWIGVMNPGSGGTHYSEKFRGKATLTADKSSSTAYMQLISLTSDDSAVYFCARSDYDYVTYAMDYWGQGTSVTVSS VL: DIKMTQSPSSMYASLGERVTITCKASQDINSYLIWFQQKPGKSPKTLIYRTNRLVDGVPSRFSGSGSGQDYSLTISSLEYGDMGIYYCLQYDEFPFTFGSGTKLEIKR"
  observed value: 1.2

Each recorded value in this set is attributed to patent US20240150465A1.
